molecular target: full-length human CD36-Flag overexpressed on stable F293 cells (human, UniProt P16671 2-472); test: cell-based or functional assay
Sequence (P16671 2-472): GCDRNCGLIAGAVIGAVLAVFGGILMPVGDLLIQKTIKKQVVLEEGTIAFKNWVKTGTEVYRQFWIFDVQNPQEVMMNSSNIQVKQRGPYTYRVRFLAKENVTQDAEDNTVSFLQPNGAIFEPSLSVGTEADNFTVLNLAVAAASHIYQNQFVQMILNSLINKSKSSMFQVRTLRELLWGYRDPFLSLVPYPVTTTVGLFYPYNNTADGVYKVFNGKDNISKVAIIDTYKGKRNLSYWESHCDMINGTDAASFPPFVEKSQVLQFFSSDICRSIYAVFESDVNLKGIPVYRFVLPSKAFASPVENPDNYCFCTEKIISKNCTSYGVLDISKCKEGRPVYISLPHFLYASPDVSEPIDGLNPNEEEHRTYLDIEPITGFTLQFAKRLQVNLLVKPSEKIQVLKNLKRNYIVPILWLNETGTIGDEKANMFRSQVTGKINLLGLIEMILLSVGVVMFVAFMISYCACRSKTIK
Observable: oxLDL uptake IC50 (nM), F293/hCD36

[[record]]
binder = "117_DA57D (antibody, V domains shown, full-length IgG, human kappa) VH: EVQLVESGGGLVQPGGSLRLSCAASGFTIDAFGIHWVRQAPGKGLEWVAWIAPYGGDTYYADSVKGRFTISADTSKNTAYLQMNSLRAEDTAVYYCARSFFGYFDYWGQGTLVTVSS VL: DIQMTQSPSSLSASVGDRVTITCRASQDVSNWVAWYQQKPGKAPKLLISYATSLYSGVPSRFSGSGSGTDFTLTISSLQPEDFATYYCQQHSNAPLTFGQGTKVEIKR"
observable = "oxLDL uptake IC50 (nM), F293/hCD36"
unit_tag = "nM"
measured_value = 0.332

